Where do these numbers come from? They come from paper PMC11232109.

# Tested on: MCF7 (human breast adenocarcinoma)
# Experiment Description: MTT assay, MCF7
# Type: cell-based
# Conditions: Homo sapiens, MCF7; MTT, 48 hours
# Description: The percentage of the cell viability treated with the newly synthesized compounds was evaluated using MTT assay (3-(4,5-dimethylthiazol-2-yl)-2,5-diphenyl tetrazolium bromide). […] The absorbance was then measured at 595 nm and a reference wavelength of 620 nm using a microplate multi-well reader (Bio-Rad Laboratories Inc., model 3350). […] The percentage of change in viability was calculated according to the formula: ((reading of extract/reading of negative control) − 1) × 100. […]
Hi there, I'd appreciate the recorded IC50 for every entry that follows.
One number for each entry, in µM.

Use the examples below as a reference point.
Cc1c(C(=O)C=Cc2ccco2)c(-c2cccs2)nn1-c1ccc([N+](=O)[O-])cc1	72.3
Cc1c(C(=O)C=Cc2nn(-c3ccccc3)cc2-c2ccc([N+](=O)[O-])cc2)c(-c2cccs2)nn1-c1ccc([N+](=O)[O-])cc1	59.3
Cc1nn(-c2ccccc2)c(C=CC(=O)c2c(-c3cccs3)nn(-c3ccc([N+](=O)[O-])cc3)c2C)c1Cl	42.6

Note: attention shifts to another entry.
Qu. # query: IC50 of entry COc1cccc2c1C(=O)c1c(O)c3c(c(O)c1C2=O)C[C@@](O)(C(=O)CO)C[C@@H]3O[C@H]1C[C@H](N)[C@H](O)[C@H](C)O1 [Doxorubicin, reference compound]
Ans. 48

====

Hi there, I'd appreciate the recorded cytotoxicity at 48 h, 100 μg ml^−1 for every entry that follows.
# Experiment Description: MTT assay, normal cell line BJ1
# Format: cell-based
# Conditions: human, BJ1 normal skin fibroblasts, at 100 μg ml^−1, 48 hours, read-out: (%) Mortality of BJ1
One number for each entry, in %.

Use the examples below as a reference point.
Cc1c(C(=O)C=Cc2ccco2)c(-c2cccs2)nn1-c1ccc([N+](=O)[O-])cc1 [Compound 7a]	11.2
Cc1nn(-c2ccccc2)c(C=CC(=O)c2c(-c3cccs3)nn(-c3ccc([N+](=O)[O-])cc3)c2C)c1Cl [Compound 7d]	12.3
COc1cccc2c1C(=O)c1c(O)c3c(c(O)c1C2=O)C[C@@](O)(C(=O)CO)C[C@@H]3O[C@H]1C[C@H](N)[C@H](O)[C@H](C)O1 [Doxorubicin, reference compound]	100

Note: attention shifts to another entry.
Qu. # query: cytotoxicity at 48 h, 100 μg ml^−1 of entry Cc1c(C(=O)C=Cc2ccncc2)c(-c2cccs2)nn1-c1ccc([N+](=O)[O-])cc1 [Compound 7c]
Ans. 52.3

====

# Tested on: MCF7 (human breast adenocarcinoma)
# Experiment Description: MTT assay, MCF7
# Assay type: cell-based
# Conditions: at 100 μg ml^−1, 48 hours, MTT; read-out: (%) Mortality of MCF7
Measured Property: cytotoxicity (%)
Answers are plain numbers, in %.

Qu. # query: cytotoxicity of entry "Cc1nn(-c2ccccc2)c(C=CC(=O)c2c(-c3cccs3)nn(-c3ccc([N+](=O)[O-])cc3)c2C)c1Cl"
Ans. 71.2
